Assay: Mouse PK, multiple oral dosing of single compounds
Assay type: in vivo, KM mice
Conditions: KM, mouse, plasma, po, 30 mg/kg, multiple PO, times 3, 30 mg/kg, summary table; read-out: AUC(0-∞)
Description: Methods for combined single dosing (BGAz001–005) and dosing of single compounds multiple times (BGAz004 and BGAz005) are described in detail in the Supporting Information (PK Data). Report on PK results of BGAz-004 by multiple oral dosing 7 Materials and instrument combined dosing […]
parameter_measured: AUC(0-inf) (ng·h/mL)
Respond with the bare value in ng·h/mL.

Input: Provide one value: measured AUC(0-inf) of CNCC1CC(c2ccc(OC(F)(F)F)cc2)N1Cc1ccccc1OC(F)(F)F (stereo not shown)
Output: 82200
